system: EKVX; assay: NCI tumour cell line growth inhibition, 48 h
Activity calls are given as the source filed them. Rule as the data show it: active = GI50 up to about 1.1 µM and inactive = higher.
Would you mind answering with one of these outcomes? active, inactive

Look over these answered cases.
- compound: "Oc1cc(O)c2c(c1)OC(c1ccc(O)c(O)c1)C(O)C2c1c(O)cc(O)c2c1OC(c1ccc(O)c(O)c1)C(O)C2 (stereo unspecified)"
  assigned.class: "inactive"
- compound: "O=C(CCC=C(S(=O)(=O)c1ccccc1)S(=O)(=O)c1ccccc1)c1ccccc1"
  assigned.class: "inactive"
- compound: "COc1cc2cc(c1Cl)N(C)C(=O)C[C@H](OC(=O)[C@H](C)N(C)C(C)=O)[C@]1(C)O[C@H]1[C@H](C)[C@@H]1C[C@@](O)(NC(=O)O1)[C@H](OC)/C=C/C=C(/C)C2"
  assigned.class: "active"
- compound: "NC(=S)N/N=C/c1c[nH]c2ccccc12"
  assigned.class: "inactive"
- compound: "Cc1cc2c(Br)cc(Br)c(O)c2nc1C(=O)c1ccccc1"
  assigned.class: "inactive"

In: What call does the record list for "O=C(/C=C/c1c(O)ccc2ccccc12)c1ccccc1" ?
Out: inactive

In: Record request — test call for "C[N+]1(C)C/C(=C\c2ccncc2)C(=O)/C(=C/c2ccncc2)C1"
Out: inactive

In: # outcome recorded in this test, key = "O=C(/C=C/c1c(O)nc2ccccc2c1O)CC(=O)C(=O)Nc1cccc(O)c1"
Out: inactive
